Assign Cross-Reactivity (%) to each entry below.
# Tested on: mAb 61C6
# RUN_DESCRIPTION: Competitive ECL cross-reactivity test in human plasma with and without 5-FU
# RECORDED_CONDITIONS: With 5-FU (379 ng/mL); human plasma; chemicals 10 μg/mL, chemotherapy drugs 100 μg/mL
Be sure to follow the number with its unit.

*Q* Entry "O=c1ccn([C@@H]2O[C@H](CO)[C@@H](O)[C@H]2O)c(=O)[nH]1" : reported Cross-Reactivity (%) = ?
*A* 0.16%

*Q* Suppose we examine the molecule CN(Cc1cnc2nc(N)nc(N)c2n1)c1ccc(C(=O)N[C@@H](CCC(=O)O)C(=O)O)cc1 [Methotrexate] ; what Cross-Reactivity (%) value has been reported?
*A* −0.02%

*Q* # lookup: Cross-Reactivity (%) of O=c1[nH]c(=O)n(C2CCCO2)cc1F (centres unmarked)
*A* 15.5%

*Q* Requested field: Cross-Reactivity (%). Item: "O=C1[O][Pt]2([NH][C@@H]3CCCC[C@H]3[NH]2)[O]C1=O"
*A* 0.01%

*Q* If you can, please state the reported Cross-Reactivity (%) value of N.N.[Cl][Pt][Cl] [Cisplatin] .
*A* −0.04%

*Q* Any idea what Cross-Reactivity (%) was measured for "O=c1cc[nH]c(=O)[nH]1" ?
*A* 0.11%

*Q* Name the recorded Cross-Reactivity (%) for O=C1NCC(F)C(=O)N1 (centres unmarked) [DH5FU, 5-Fluorodihydropyrimidine-2,4-dione] .
*A* 1.74%

*Q* Give the measured Cross-Reactivity (%) of "CCCCCOC(=O)Nc1nc(=O)n([C@@H]2O[C@H](C)[C@@H](O)[C@H]2O)cc1F" .
*A* −0.13%

*Q* Param item = Nc1nc(=O)c2c([nH]1)NCC(CNc1ccc(C(=O)N[C@@H](CCC(=O)O)C(=O)O)cc1)N2C=O (mixture of isomers) ; retrieve measured Cross-Reactivity (%).
*A* −0.01%

*Q* Value lookup for Cross-Reactivity (%); key = "Cc1cn([C@H]2C[C@H](O)[C@@H](CO)O2)c(=O)[nH]c1=O"
*A* 0.13%

*Q* Field request: Cross-Reactivity (%) | item: "Cc1c[nH]c(=O)[nH]c1=O"
*A* 0.80%

----------
# Tested on: monoclonal antibody 61C6
# RUN_DESCRIPTION: Cross-reactivity evaluation with lyophilized reagents (Bi-mAb-Beads capture, TAG Plus 1-5C-5-FU-BSA detector)
# Assay type: binding, Balb/c mouse
# RECORDED_CONDITIONS: With 1000 ng/mL Spiked 5-FU
ENDPOINT_NAME: % Cross-React

*Q* Report % Cross-React for "CCc1c2c(nc3ccc(OC(=O)N4CCC(N5CCCCC5)CC4)cc13)-c1cc3c(c(=O)n1C2)COC(=O)[C@]3(O)CC" tested on monoclonal antibody 61C6.
*A* 0.3%

*Q* Please tell me: % Cross-React of O=c1[nH]c(=O)n(C2CCCO2)cc1F (stereo not drawn) , system monoclonal antibody 61C6?
*A* 45%

*Q* Provide value of % Cross-React for this record tested with monoclonal antibody 61C6: O=C1NCC(F)C(=O)N1 (stereo not drawn) [DH5FU, 5-Fluorodihydropyrimidine-2,4-dione]
*A* 1.0%
